All values here come from ChEMBL document CHEMBL1799932.

System: L6
test details: Cytotoxicity at rat L6 cells after 72 hrs by microplate alamar blue assay
Assay type: cell-based
condition context: l6
pIC50: −log10 of the molar value.
Collected pIC50 values appear next to each entry.
quantity name: pIC50

| smiles str | system under test | readout relation | quantitative readout |
| --- | --- | --- | --- |
| CCN(CC)CCCNc1cc(-c2cccc(C(F)(F)F)c2)c(C#N)c2nc3ccccc3n12 | L6 | = | 4.61 |
| CCN(CC)CCNc1cc(-c2ccc(C(F)(F)F)cc2)c(C#N)c2nc3ccccc3n12.Cl.Cl | L6 | = | 4.05 |
| CCN(CC)CCNc1cc(-c2ccc(C(F)(F)F)cc2)c(C#N)c2nc3ccccc3n12.CS(=O)(=O)O | L6 | = | 3.91 |
| CCN(CC)CCNc1cc(-c2ccc(C(F)(F)F)cc2)c(C#N)c2nc3ccccc3n12 | L6 | = | 4.54 |
| CN(C)CCCNc1cc(-c2cccc(C(F)(F)F)c2)c(C#N)c2nc3ccccc3n12.Cl.Cl | L6 | = | 4.72 |
| CN(C)CCNc1cc(-c2ccc(C(F)(F)F)cc2)c(C#N)c2nc3ccccc3n12.CS(=O)(=O)O | L6 | < | 3.76 |

###

test details: Metabolic stability in mouse liver microsomes assessed as degradation half life after 60 mins by LC-MS analysis
Assay type: ADME, Microsome
quantity name: half-life (min)

| smiles str | quantity name | quantitative readout |
| --- | --- | --- |
| CCN(CC)CCNc1cc(-c2ccc(C(F)(F)F)cc2)c(C#N)c2nc3ccccc3n12.Cl.Cl | half-life | 24.1 |
| Cl.N#Cc1c(-c2ccc(C(F)(F)F)cc2)cc(NCCN2CCCCC2)n2c1nc1ccccc12 | half-life | 59.5 |
| Cl.N#Cc1c(-c2ccc(C(F)(F)F)cc2)cc(NCCCN2CCOCC2)n2c1nc1ccccc12 | half-life | 19.9 |
| Cl.N#Cc1c(-c2ccc(C(F)(F)F)cc2)cc(NCCN2CCOCC2)n2c1nc1ccccc12 | half-life | 26.6 |
| CCNCCNc1cc(-c2ccc(C(F)(F)F)cc2)c(C#N)c2nc3ccccc3n12.Cl.Cl | half-life | 321 |
| Cl.N#Cc1c(-c2ccc(C(F)(F)F)cc2)cc(NCCN2CCCC2)n2c1nc1ccccc12 | half-life | 67.6 |

###

Collected IC50 values appear next to each entry.
Test system: L6
test details: Cytotoxicity at rat L6 cells after 72 hrs by microplate alamar blue assay
Format: cell-based
condition context: l6
quantity name: IC50 (µM)

| smiles str | quantity name | readout relation | quantitative readout |
| --- | --- | --- | --- |
| CN(C)CCNc1cc(-c2ccc(C(F)(F)F)cc2)c(C#N)c2nc3ccccc3n12.Cl | IC50 | = | 147 |
| CN(C)CCCNc1cc(-c2ccc(C(F)(F)F)cc2)c(C#N)c2nc3ccccc3n12.Cl.Cl | IC50 | = | 21.1 |
| CCN(CC)CCCNc1cc(-c2ccc(C(F)(F)F)cc2)c(C#N)c2nc3ccccc3n12 | IC50 | > | 190 |
| CCN(CC)CCCNc1cc(-c2ccc(C(F)(F)F)cc2)c(C#N)c2nc3ccccc3n12.Cl | IC50 | = | 2.23 |
| CCN(CC)CCCNc1cc(-c2cccc(C(F)(F)F)c2)c(C#N)c2nc3ccccc3n12.Cl.Cl | IC50 | = | 11.8 |
